- studyTarget: T1, HLA-A*0201 molecule expressed on human T2 cells (human)
- T1 construct: also called HLA-A2
- experiment: T2 cells (HLA-A*0201), peptide at 10 µM, anti-HLA-A2 flow cytometry
measureName: mean relative fluorescence intensity (HIV peptide = 100)

Solved cases (4 shown):
YLAYLIFEL [CD19-B6] :: 52.5 % of HIV pol 589-597 at 100 µM
GLAFVPLQI [CD37-H1] :: 27 % of HIV pol 589-597 at 100 µM
IMNSLSLFA [MS4A1-H4] :: 2.6 % of HIV pol 589-597 at 100 µM
AMNSLSLYI [MS4A1-B4] :: 13.1 % of HIV pol 589-597 at 100 µM

Prompt line: Which mean relative fluorescence intensity (HIV peptide = 100) is reported for this binder? LMFGAPALV [TNFRSF13C-B1]
Response line: 37 % of HIV pol 589-597 at 100 µM
